- target_of_assay: CCR8 (Homo sapiens, UniProt P51685)
- Sequence (P51685 whole entry, the tested form may be a part): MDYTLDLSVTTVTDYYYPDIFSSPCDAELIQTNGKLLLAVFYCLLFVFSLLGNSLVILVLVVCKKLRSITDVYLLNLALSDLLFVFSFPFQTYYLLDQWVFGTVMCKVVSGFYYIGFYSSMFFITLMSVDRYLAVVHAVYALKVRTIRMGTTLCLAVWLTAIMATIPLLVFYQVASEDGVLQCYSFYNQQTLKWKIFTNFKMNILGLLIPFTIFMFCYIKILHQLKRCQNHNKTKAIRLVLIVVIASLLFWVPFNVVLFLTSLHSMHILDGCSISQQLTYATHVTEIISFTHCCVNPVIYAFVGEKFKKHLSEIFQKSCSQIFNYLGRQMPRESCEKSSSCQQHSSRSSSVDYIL
- protocol_text: Tango assay (Tango-CCR8-Gal4-CHO-K1 cells, CCL1-stimulated, ONE-Glo luminescence)
- test_context: Tango Assay IC50, Inhibition of CCR8 Tango cell in vitro
pIC50: −log10 of the molar value. Where a name gives a salt, the structure may show the parent alone.
quantity_measured: pIC50

(a) Cc1ccccc1C(=O)Nc1ccc(S(=O)(=O)NC(C)CC2CCCCC2)c2ccccc12 (stereo not shown)
(b) Cc1cc(S(=O)(=O)N[C@H](C)C2CCNCC2)ccc1NC(=O)c1nccs1 [Compound 253A, hydrochloride]
(c) COC(=O)[C@@H](NS(=O)(=O)c1ccc(NC(=O)c2ccccc2C)c2ccccc12)C1CCCCC1
Request: From the records above, write out the order of decreasing pIC50. Arrange the labels as the request states and list them.
Response: a, c, b

====

pIC50 reference
- target_of_assay: UniProt P51685
- protocol_text: Tango assay (Tango-CCR8-Gal4-CHO-K1 cells, CCL1-stimulated, ONE-Glo luminescence)
- test_context: Tango Assay IC50, Inhibition of CCR8 Tango cell in vitro
pIC50: −log10 of the molar value. Where a name gives a salt, the structure may show the parent alone.

[
  {
    "molecule": "COC(=O)C(NS(=O)(=O)c1ccc(NC(=O)c2ccccc2C)c(C)c1)C1CCNCC1 (stereo not drawn) [Compound 240A, hydrochloride]",
    "quantity_measured": "pIC50",
    "observed_measurement": "< 4.00"
  },
  {
    "molecule": "Cc1ccccc1C(=O)Nc1ccc(S(=O)(=O)Nc2ccc3c(c2)CCN(C(=O)CN(C)C)C3)c2ccccc12",
    "quantity_measured": "pIC50",
    "observed_measurement": "< 5.00"
  },
  {
    "molecule": "CC(NS(=O)(=O)c1ccc2[nH]cnc2c1)C1CCCCC1 (stereo not drawn)",
    "quantity_measured": "pIC50",
    "observed_measurement": "< 5.00"
  },
  {
    "molecule": "CC(NS(=O)(=O)c1ccc2[nH]c(=O)cnc2c1)C1CC2CCC1CC2 (stereo not drawn)",
    "quantity_measured": "pIC50",
    "observed_measurement": "< 5.00"
  },
  {
    "molecule": "Cc1ccccc1C(=O)Nc1cc(F)c(S(=O)(=O)N[C@@H](C)C2CCN(C)CC2)cc1Cl [Compound 263A, hydrochloride]",
    "quantity_measured": "pIC50",
    "observed_measurement": 6.55
  }
]

Now for the molecule whose pIC50 we want.
Request: Data request, read-out pIC50, for Cc1ccccc1C(=O)Nc1ccc(S(=O)(=O)NC2CCc3n[nH]cc3C2)c2ccccc12 (stereo not drawn)
Response: < 5.00

====

- target_of_assay: CCR8 (Homo sapiens, UniProt P51685)
- protocol_text: Tango assay (Tango-CCR8-Gal4-CHO-K1 cells, CCL1-stimulated, ONE-Glo luminescence)
- test_context: Tango Assay IC50, Inhibition of CCR8 Tango cell in vitro
pIC50: −log10 of the molar value. Counter-ions that a name gives are not always drawn.
quantity_measured: pIC50

[
  {
    "compound": "Cc1ccccc1C(=O)Nc1cc(Cl)c(S(=O)(=O)N[C@H](C)C2CCN(C)CC2)cc1Cl [Compound 306, hydrochloride]",
    "pIC50": 8.22
  },
  {
    "compound": "Cc1ccccc1C(=O)Nc1ccc(S(=O)(=O)NC(C)C23CCC(CC2)CC3)c2ccccc12 (stereo not shown) [Compound 132]",
    "pIC50": 8.49
  },
  {
    "compound": "Cc1ccc(C(=O)Nc2ccc(S(=O)(=O)N[C@H](C)C3CCN(C)CC3)cc2C)c(C)c1 [Compound 277]",
    "pIC50": 8.70
  }
]

(P) CC(=O)N1CCC(C(C)NS(=O)(=O)c2ccc(NC(=O)c3ccccc3C)c3ccccc23)CC1 (stereo not shown) [Compound 62]
(Q) COc1cc(NC(=O)c2ccccc2C)c(C)cc1S(=O)(=O)NC(C)C1CC2CCC1CC2 (stereo not shown) [Compound 184]
(R) Cc1ccccc1C(=O)Nc1ccc(S(=O)(=O)NC2CCc3nc(N)sc3C2)c2ccccc12 (stereo not shown) [Compound 85]
Request: Order by pIC50, ascending. Arrange the labels as the request states and list them.
Response: P, R, Q

====

- target_of_assay: CCR8 (Homo sapiens)
- protocol_text: Tango assay (Tango-CCR8-Gal4-CHO-K1 cells, CCL1-stimulated, ONE-Glo luminescence)
- test_context: Tango Assay IC50, Inhibition of CCR8 Tango cell in vitro
Structures can show the parent of a compound that is named as a salt.
quantity_measured: IC50 (µM)

[
  {
    "molecule": "Cc1ccccc1C(=O)Nc1ccc(S(=O)(=O)N[C@H](C)C2CCNCC2)c(Cl)c1Cl [Compound 244A, hydrochloride]",
    "IC50, µM": 0.104
  }
]

(a) Cc1ccccc1C(=O)Nc1cc(C)c(S(=O)(=O)N[C@H](C)C2CCN(C)CC2)cc1Cl [Compound 267A, hydrochloride]
(b) Cc1cc(S(=O)(=O)N[C@H](C)C2CCNCC2)c(C)cc1NC(=O)c1ccccc1C [Compound 171A, hydrochloride]
(c) Cc1ccccc1C(=O)Nc1ccc(S(=O)(=O)NC(C)CC2CCNCC2)c2ccccc12 (centres unmarked) [Compound 126]
(d) CCCN1CCCN(c2cc(NS(=O)(=O)c3ccc(NC(=O)c4ccccc4C)c4ccccc34)ccc2OC)CC1 [Compound 4]
Request: Order by IC50, ascending. Arrange the labels as the request states and list them.
Response: a, b, c, d
(a: 0.002 µM, b: 0.019 µM, c: 0.133 µM, d: 1.17 µM)

====

- target_of_assay: CCR8 (Homo sapiens, UniProt P51685)
- protocol_text: Tango assay (Tango-CCR8-Gal4-CHO-K1 cells, CCL1-stimulated, ONE-Glo luminescence)
- test_context: Tango Assay IC50, Inhibition of CCR8 Tango cell in vitro
quantity_measured: IC50

[
  {
    "compound": "Cc1ccccc1C(=O)Nc1ccc(S(=O)(=O)NC(C)C(=O)N2CCC(C)CC2)c2ccccc12 (stereo not shown)",
    "observed_measurement": "> 10 µM"
  },
  {
    "compound": "Cc1ccccc1C(=O)Nc1ccc(S(=O)(=O)NC(C)C2CCCN(C(=O)[C@H](C)NC(=O)OC(C)(C)C)C2)c2ccccc12 (single isomer, unassigned) [Compound 157A]",
    "observed_measurement": "> 10 µM"
  },
  {
    "compound": "CN(C)CC(=O)N1CCOc2ccc(NS(=O)(=O)c3ccc4ccccc4c3)cc21",
    "observed_measurement": "> 10 µM"
  }
]

Now for the compound whose IC50 we want.
Request: Data request, read-out IC50, for CCCC(=O)N1CCC(CNS(=O)(=O)c2ccc(NC(=O)c3ccccc3C)c3ccccc23)C1 (stereo not shown)
Response: > 10 µM

====

IC50 reference
- target_of_assay: CCR8 (Homo sapiens, UniProt P51685)
- protocol_text: Tango assay (Tango-CCR8-Gal4-CHO-K1 cells, CCL1-stimulated, ONE-Glo luminescence)
- test_context: Tango Assay IC50, Inhibition of CCR8 Tango cell in vitro
Counter-ions that a name gives are not always drawn.

[
  {
    "compound": "CC(NS(=O)(=O)c1ccc(-c2cc3ccccc3[nH]2)c2ccccc12)C1CCCCC1 (stereo not shown)",
    "target_of_assay": "CCR8 (Homo sapiens, UniProt P51685)",
    "IC50": "> 10 µM"
  },
  {
    "compound": "CC(NS(=O)(=O)c1cccc(N2CCCCC2C(=O)O)c1)C1CCCCC1 (stereo not shown)",
    "target_of_assay": "CCR8 (Homo sapiens, UniProt P51685)",
    "IC50": "> 10 µM"
  },
  {
    "compound": "Cc1ccccc1C(=O)Nc1ccc(S(=O)(=O)NC(C)C2CCCN(C(=O)CN(C)C)C2)c2ccccc12 (stereo not shown)",
    "target_of_assay": "CCR8 (Homo sapiens, UniProt P51685)",
    "IC50": "> 10 µM"
  }
]

Request: Data request, read-out IC50, for CC(NS(=O)(=O)c1cccc(N2CCC(C(=O)O)C2)c1)C1CCCCC1 (stereo not shown)
Response: > 10 µM

Request: Query CC(=O)NC1CCc2cc(S(=O)(=O)NC(C)C3CCCCC3)ccc21 (stereo not shown) next
Response: > 10 µM

Request: Query "Cc1cc(S(=O)(=O)N[C@H](C)C2CCN(C(=O)OC(C)(C)C)CC2)c(C)cc1NC(=O)c1ccccc1C" next
Response: > 100 µM

Request: Query "CN(C)CCN1CCOc2cc(NS(=O)(=O)c3ccc4ccccc4c3)ccc2C1=O" next
Response: > 100 µM

Request: Query Cc1ccccc1C(=O)Nc1ccc(S(=O)(=O)NC2CCC(C(=O)N3CCN(C)CC3)CC2)c2ccccc12 (stereo not shown) next
Response: > 10 µM

Request: Query CC(NS(=O)(=O)c1ccc2c(c1)C(=O)NCCC2)C1CC2CCC1CC2 (stereo not shown) next
Response: > 10 µM

Request: Query "Cc1ccccc1C(=O)Nc1ccc(S(=O)(=O)NC(=O)c2ccccc2N2CCOCC2)c2ccccc12" next
Response: > 10 µM

Request: Query "Cc1ccccc1C(=O)Nc1ccc(S(=O)(=O)Nc2ccc3c(c2)N(CCN(C)C)CC3)c2ccccc12" next
Response: > 10 µM

Request: Query "CCCC(=O)N1CCC(NS(=O)(=O)c2ccc(Nc3nccc4ccccc34)c3ccccc23)CC1" next
Response: > 10 µM

Request: Query "CC(C)(C)OC(=O)N1CCC(NS(=O)(=O)c2ccc(-c3nc4ccccc4[nH]3)cc2)CC1" next
Response: > 10 µM

Request: Query CC(NS(=O)(=O)c1ccc2cnccc2c1)C1CC2CCC1CC2 (stereo not shown) next
Response: > 10 µM

Request: Query "CC(=O)N1CC(C)(C)c2ccc(NS(=O)(=O)c3ccc(NC(=O)c4ccccc4C)c4ccccc34)cc21" next
Response: > 10 µM

Request: Query Cc1ccccc1C(=O)Nc1cc(F)c(S(=O)(=O)NC2CCNCC2)cc1Cl [Compound 311, hydrochloride] next
Response: > 100 µM
